B1: NCK2 (parent)
chain: YTGPSSSGRFAGREWYYGNVTRHQ

variants of: B1; assay: protein stability index of a GFP-peptide fusion (GPS, HEK-293T) (PSI 1-6); higher = more stable; conditions: c terminus: a fixed tail appended;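 further: lentivirally expressed fusions sorted by FACS into six bins by GFP to DsRed ratio, PSI derived from sequencing read proportions per bin multiplied by bin number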
READOUT_LABEL: protein stability index
Give the value as a plain number.

Below: 5 variants and their reported protein stability index.
>>> df
   mutations  result
0        S5N    1.95
1       G12R    1.98
2       G18K    2.64
3       G18W    2.18
4       A11F    4.19

Ask | Output measured protein stability index for this item: `S7V`
Reply | 1.46

Ask | Note down protein stability index recorded for `W15D`
Reply | 2.83

Ask | Provide one value: measured protein stability index of `Q24D`
Reply | 2.51

Ask | Please give measured protein stability index of the following entry: `V20I`
Reply | 2.71

Ask | State, in one line, measured protein stability index of `N19W`
Reply | 3.18

Ask | // fetch protein stability index given entry `S6E`
Reply | 1.49

Ask | Supply recorded protein stability index for `Y16M` here.
Reply | 1.61

Ask | Supply protein stability index value. Item: `F10A`
Reply | 2.14

Ask | Name the recorded protein stability index of the variant listed here: `A11M`
Reply | 1.48

Ask | For the variant `A11N` , report protein stability index.
Reply | 2.34

Ask | // Input: `G8Q` . Output its protein stability index only.
Reply | 1.64

Hey, just so you know, these numbers are from the supplement of paper PMC10567573.
